ASSAY_SETUP: in ethyl acetate, 328.15 K
READOUT: solubility (mole fraction)
Please reply with the number alone, leaving off any unit.

Input: Given the compound `Nc1ccc(N2CCOCC2=O)cc1` , what is its reported solubility (mole fraction)?
Output: 0.00743

###

ASSAY_SETUP: in THF, 313.15 K
READOUT: solubility (mole fraction)
Please reply with the number alone, leaving off any unit.

Input: Given the compound `Nc1ccc(N2CCOCC2=O)cc1` , what is its reported solubility (mole fraction)?
Output: 0.00865

###

ASSAY_SETUP: in 1,4-dioxane, 323.15 K
READOUT: solubility (mole fraction)

Input: Given the compound `Nc1ccc(N2CCOCC2=O)cc1` , what is its reported solubility (mole fraction)?
Output: 0.0244

###

ASSAY_SETUP: in ethanol, 298.15 K
READOUT: solubility (mole fraction)
Please reply with the number alone, leaving off any unit.

Input: Given the molecule `Nc1ccc(N2CCOCC2=O)cc1` , what is its reported solubility (mole fraction)?
Output: 0.00321

###

ASSAY_SETUP: in THF, 293.15 K
READOUT: solubility (mole fraction)
Please reply with the number alone, leaving off any unit.

Input: Given the molecule `Nc1ccc(N2CCOCC2=O)cc1` , what is its reported solubility (mole fraction)?
Output: 0.00323

###

ASSAY_SETUP: in ethyl acetate, 333.15 K
READOUT: solubility (mole fraction)

Input: Given the compound `Nc1ccc(N2CCOCC2=O)cc1` , what is its reported solubility (mole fraction)?
Output: 0.00873

###

ASSAY_SETUP: in 1,4-dioxane, 318.15 K
READOUT: solubility (mole fraction)
Please reply with the number alone, leaving off any unit.

Input: Given the compound `Nc1ccc(N2CCOCC2=O)cc1` , what is its reported solubility (mole fraction)?
Output: 0.0209

###

ASSAY_SETUP: in ethyl acetate, 303.15 K
READOUT: solubility (mole fraction)
Please reply with the number alone, leaving off any unit.

Input: Given the compound `Nc1ccc(N2CCOCC2=O)cc1` , what is its reported solubility (mole fraction)?
Output: 0.00257

###

ASSAY_SETUP: in 1,4-dioxane, 278.15 K
READOUT: solubility (mole fraction)
Please reply with the number alone, leaving off any unit.

Input: Given the compound `Nc1ccc(N2CCOCC2=O)cc1` , what is its reported solubility (mole fraction)?
Output: 0.00411

###

ASSAY_SETUP: in ethyl acetate, 318.15 K
READOUT: solubility (mole fraction)

Input: Given the molecule `Nc1ccc(N2CCOCC2=O)cc1` , what is its reported solubility (mole fraction)?
Output: 0.00509

###

ASSAY_SETUP: in 1,4-dioxane, 328.15 K
READOUT: solubility (mole fraction)
Please reply with the number alone, leaving off any unit.

Input: Given the molecule `Nc1ccc(N2CCOCC2=O)cc1` , what is its reported solubility (mole fraction)?
Output: 0.0282

###

ASSAY_SETUP: in THF, 283.15 K
READOUT: solubility (mole fraction)
Please reply with the number alone, leaving off any unit.

Input: Given the compound `Nc1ccc(N2CCOCC2=O)cc1` , what is its reported solubility (mole fraction)?
Output: 0.00182

###

ASSAY_SETUP: in n-propanol, 328.15 K
READOUT: solubility (mole fraction)
Please reply with the number alone, leaving off any unit.

Input: Given the compound `Nc1ccc(N2CCOCC2=O)cc1` , what is its reported solubility (mole fraction)?
Output: 0.00348

Values from BigSolDB 2.1
